- experimental_target: human ether-à-go-go-related gene (hERG) potassium channel (human);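 note: peak tail current of the secondary pulse compared with the same well before compound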
- measurement_notes: primary screen, population patch clamp on CHO cells stably expressing hERG; higher = less effect of the substance
In all, about 310,000 compounds went through this assay and about 14,000 (4.5%) showed an effect of 50% or more. Effects have a minus sign here. Shown is part of a subset that was picked to be rich in strong results.
parameter_measured: hERG current change (%, negative = inhibition) at 10uM (%)
Numbers only; they are read as %.

Take a look at these entries with their results.
molecule | value_measured
CCC1(c2ccc(F)cc2)NC(=O)N(CC(=O)N2CC(=O)Nc3ccccc32)C1=O (stereo not drawn) | -5.52
COc1ccc(CCN(C)Cc2ccncc2)cc1OC | -27.2
CC(O)CNc1nc2c(c(=O)n(C)c(=O)n2C)n1C/C=C/c1ccccc1 (stereo not drawn) | -13.7

Name the recorded hERG current change (%, negative = inhibition) at 10uM for O=C(C1=C(O)C(=O)N(CC2CCCO2)C1c1ccc(Cl)cc1)c1ccco1 (stereo not drawn) .
12.3

Find the recorded hERG current change (%, negative = inhibition) at 10uM belonging to `O=C(CCCOc1ccccc1)Nc1nncs1` and report it.
-5.59

Entry under review: `COc1ccc(CCN(C)Cc2ccc(OC)c(OCc3ccccc3)c2)cc1OC` . Reported hERG current change (%, negative = inhibition) at 10uM?
-81.6

Please look up its hERG current change (%, negative = inhibition) at 10uM: `O=C1c2cccc3c(Nc4ccccc4Cl)c([N+](=O)[O-])cc(c23)C(=O)N1CCO`
-22.8

Name the recorded hERG current change (%, negative = inhibition) at 10uM for `CN1C(=O)c2ccc(NC(=O)CCS(=O)(=O)c3ccccc3)cc2C1=O` .
-3.01

If you can, please state the reported hERG current change (%, negative = inhibition) at 10uM value of `O=C(CNCCc1ccc(F)cc1)Nc1cc(F)ccc1F.O=C(O)C(=O)O` .
-19.9

---

- experimental_target: human ether-à-go-go-related gene (hERG) potassium channel (human);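 note: peak tail current of the secondary pulse compared with the same well before compound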
- measurement_notes: primary screen, population patch clamp on CHO cells stably expressing hERG; higher = less effect of the substance
The campaign covered roughly 310,000 compounds. About 14,000 (4.5%) showed an effect of 50% or more. The effect is printed as a negative number. The entries come from a sample that favours strong results as a whole.
parameter_measured: hERG current change (%, negative = inhibition) at 10uM

Some compounds with recorded hERG current change (%, negative = inhibition) at 10uM:
compound | value_measured
CCn1c2ccccc2c2cc(NC(=O)CSc3nnc(-c4ccc(OC)cc4)n3N)ccc21 | -10.9%
CCn1c(SCC(=O)Nc2cc(C)on2)nnc1-c1ccccc1 | -3.05%
O=C(Nc1nc(-c2ccc(F)cc2)cs1)C1CCCO1 (stereo not drawn) | -6.67%
COc1cc(NC(=O)c2ccc(COCC(F)(F)F)o2)cc(OC)c1OC | -16.8%
CCOc1ccccc1CN1CCN(Cc2cn(C)nc2-c2ccccc2)CC1CCO (stereo not drawn) | -65.6%
CCc1sc2nc(SCC(=O)Nc3cc(C)on3)n(-c3cccc(OC)c3)c(=O)c2c1C | 10.2%
CN(C)c1ccc(S(=O)(=O)N2CCCCC2)cc1NC(=O)CN1C(=O)NC2(CCCC2)C1=O | 8.25%
COc1ccc(NC(=O)c2ccc3ccccc3c2)cc1 | 11%
Cn1cnc2c1c(=O)n(Cc1c(Cl)cccc1Cl)c(=O)n2C | -3.36%
O=C(Nc1nc(-c2ccc(F)cc2)cs1)C1CCN(C(=O)c2ccc(F)cc2)CC1 | -54.7%

State the recorded hERG current change (%, negative = inhibition) at 10uM for this entry: O=C(Nc1ccccc1)C1CCCN(C(=O)c2ccc(F)cc2)C1 (stereo not drawn)
-51.8%

Entry `CCN1C(=O)/C(=C/N(C)c2ccccc2)OC1=S` has what hERG current change (%, negative = inhibition) at 10uM?
-8.25%

Consider the compound `O=C(Nc1cccc(F)c1)C1CCN(C(=O)c2ccc(Br)cc2)CC1` and give its measured hERG current change (%, negative = inhibition) at 10uM.
-65.1%

Look at this compound and give its reported hERG current change (%, negative = inhibition) at 10uM. C=CCOc1ccc(/C=C/C(=O)OC(C)C(=O)Nc2ccc(NC(C)=O)cc2)cc1 (stereo not drawn)
4.6%

Quick one: hERG current change (%, negative = inhibition) at 10uM of `COc1ccc(NS(=O)(=O)c2ccc(C)c(C(=O)NC3CCN(Cc4ccccc4)CC3)c2)cc1` ?
-51.1%

Entry `O=C(NC1CCN(Cc2ccccc2)CC1)c1cccc(S(=O)(=O)Nc2ccc(F)cc2)c1` has what hERG current change (%, negative = inhibition) at 10uM?
-63.8%

GET /values?readout=hERG current change (%, negative = inhibition) at 10uM&item= Cc1cc(Cl)ccc1OCC(=O)OCC(=O)NC1CCS(=O)(=O)C1 (stereo not drawn)
-12.2%

Entry under review: `O=C(/C=C/c1ccco1)Nc1cccc2cccnc12` . Reported hERG current change (%, negative = inhibition) at 10uM?
-1.87%

---

Listing: hERG current change (%, negative = inhibition) at 10uM of selected compounds
- experimental_target: human ether-à-go-go-related gene (hERG) potassium channel (human, UniProt Q12809);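 note: peak tail current of the secondary pulse compared with the same well before compound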
- Sequence (Q12809 whole entry, looked up): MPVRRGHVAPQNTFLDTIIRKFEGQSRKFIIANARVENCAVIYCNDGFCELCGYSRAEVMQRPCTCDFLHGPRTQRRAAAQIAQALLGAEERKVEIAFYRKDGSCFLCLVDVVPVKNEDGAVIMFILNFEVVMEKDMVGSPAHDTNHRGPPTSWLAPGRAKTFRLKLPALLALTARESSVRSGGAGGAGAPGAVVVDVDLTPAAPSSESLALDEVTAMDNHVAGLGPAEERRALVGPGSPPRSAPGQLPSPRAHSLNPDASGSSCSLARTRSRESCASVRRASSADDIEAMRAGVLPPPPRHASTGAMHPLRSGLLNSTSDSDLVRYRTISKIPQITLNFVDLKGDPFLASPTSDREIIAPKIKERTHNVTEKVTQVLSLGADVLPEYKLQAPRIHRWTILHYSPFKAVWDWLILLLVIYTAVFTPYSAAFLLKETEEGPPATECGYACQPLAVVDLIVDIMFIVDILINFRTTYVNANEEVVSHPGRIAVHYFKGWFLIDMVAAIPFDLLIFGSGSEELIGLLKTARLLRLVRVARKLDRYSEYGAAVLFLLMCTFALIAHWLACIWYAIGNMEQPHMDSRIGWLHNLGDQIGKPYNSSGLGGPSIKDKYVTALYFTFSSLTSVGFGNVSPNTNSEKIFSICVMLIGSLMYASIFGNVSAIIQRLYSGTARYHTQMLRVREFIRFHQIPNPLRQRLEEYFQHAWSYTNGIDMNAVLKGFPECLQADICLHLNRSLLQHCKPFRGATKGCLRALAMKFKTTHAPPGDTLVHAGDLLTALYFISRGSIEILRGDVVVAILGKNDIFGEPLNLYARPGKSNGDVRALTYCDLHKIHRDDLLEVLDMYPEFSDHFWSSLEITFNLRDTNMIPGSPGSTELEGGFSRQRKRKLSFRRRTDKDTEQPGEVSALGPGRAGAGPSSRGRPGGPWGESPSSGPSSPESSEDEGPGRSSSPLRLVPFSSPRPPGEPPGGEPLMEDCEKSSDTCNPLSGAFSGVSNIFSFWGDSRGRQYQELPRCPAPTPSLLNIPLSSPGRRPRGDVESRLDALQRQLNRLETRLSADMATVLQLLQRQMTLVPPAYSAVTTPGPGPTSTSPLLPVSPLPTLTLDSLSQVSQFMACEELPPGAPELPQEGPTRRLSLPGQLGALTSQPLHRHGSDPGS
- measurement_notes: primary screen, population patch clamp on CHO cells stably expressing hERG; higher = less effect of the substance
- Experimental: Briefly, Chinese hamster ovary (CHO) cells stably expressing the hERG channel were dislodged from tissue culture flasks and dispensed into PPC plates. […] During the recording, background leak currents were estimated by a 100 ms step to -80 mV from an initial holding potential of -70 mV and subtracted from the subsequent current measurement. The campaign was conducted in two phases using slight differences in recording protocol. […]
Hit rate of the full screen: of about 310,000 compounds, about 14,000 (4.5%) showed an effect of 50% or more. The effect is printed as a negative number. This excerpt belongs to a sample that is enriched for strong results.
Please reply with the bare figure in % and do not write the unit itself.

Previously resolved entries follow.
compound | experimental_target | value_measured
O=C(CSC1=NCCS1)NC(NC(=O)CSC1=NCCS1)c1ccccc1 | human ether-à-go-go-related gene (hERG) potassium channel (human, UniProt Q12809) | 18.6
O=c1cc(CN2CCN(C/C=C/c3ccccc3)CC2)c2cc(O)ccc2o1 | human ether-à-go-go-related gene (hERG) potassium channel (human, UniProt Q12809) | -77.5
O=C(CNc1ccc(Br)cc1)NNC1=NCCC1 | human ether-à-go-go-related gene (hERG) potassium channel (human, UniProt Q12809) | 1.72
Cc1ccc2oc(=O)cc(CN3CCCCC3)c2c1 | human ether-à-go-go-related gene (hERG) potassium channel (human, UniProt Q12809) | 15.9
CC1CCc2ccccc2N1C(=N)N(C)C.Cl (stereo not shown) | human ether-à-go-go-related gene (hERG) potassium channel (human, UniProt Q12809) | 3.44

Find hERG current change (%, negative = inhibition) at 10uM (human ether-à-go-go-related gene (hERG) potassium channel (human, UniProt Q12809)) for the entry `Cc1cc2oc(=O)cc(CN3CCN(Cc4ccccc4)CC3)c2cc1Cl`
-22.8

Field: hERG current change (%, negative = inhibition) at 10uM (human ether-à-go-go-related gene (hERG) potassium channel (human, UniProt Q12809)). Entry: `COc1ccc(N2CCN(Cc3cc(=O)oc4cc(-c5ccccc5)c(O)cc34)CC2)cc1`
-0.18

---

Entries and their hERG current change (%, negative = inhibition) at 10uM
- experimental_target: human ether-à-go-go-related gene (hERG) potassium channel (human, UniProt Q12809);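 note: peak tail current of the secondary pulse compared with the same well before compound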
- measurement_notes: primary screen, population patch clamp on CHO cells stably expressing hERG; higher = less effect of the substance
- Protocol: Briefly, Chinese hamster ovary (CHO) cells stably expressing the hERG channel were dislodged from tissue culture flasks and dispensed into PPC plates. […] During the recording, background leak currents were estimated by a 100 ms step to -80 mV from an initial holding potential of -70 mV and subtracted from the subsequent current measurement. The campaign was conducted in two phases using slight differences in recording protocol. […]
Out of some 310,000 compounds screened, about 14,000 (4.5%) showed an effect of 50% or more. Effects have a minus sign here. The sample as a whole holds a higher share of strong results than the screen did.
API: value field is a number in %; no unit string.

Here's what some known entries look like.
compound | value_measured
CC(=O)c1cc(CN2CCN(CC=C(C)C)C(CCO)C2)cs1 (centres unmarked) | 16.3
Cc1csc(NC(=O)c2cccs2)n1 | -1.76
O=C([O-])C(CCCCNS(=O)(=O)c1ccc(F)cc1)NS(=O)(=O)c1ccc(F)cc1.[K+] (centres unmarked) | 20.3
O=C(Cn1c(=S)[nH]c2ccccc2c1=O)NCCc1ccccc1 | 16

Hello, I am looking for reported hERG current change (%, negative = inhibition) at 10uM with human ether-à-go-go-related gene (hERG) potassium channel (human, UniProt Q12809) for O=C(CCc1ccncc1)N1CCCC(Nc2ccc(F)cc2)C1 (centres unmarked) . Could you help?
-13.9

The reported numbers originate from paper PMC4336329.
